Source of measurements: patent US7176219B2

Form field: Impurities before Storage (%) (one value per entry).
Assay Explanation: Evaluation of stability (1): forced degradation test, impurities by LC
Experimental Setup: before storage
Give just the numeric value; % need not be written.

Example compounds with recorded Impurities before Storage (%):
• Cl.O=C(O[C@H]1CN2CCC1CC2)N1CCc2ccccc2[C@@H]1c1ccccc1 [Reference Example 2, Compound A hydrochloride, reference compound] = 0.1
• CCS(=O)(=O)O.O=C(O[C@H]1CN2CCC1CC2)N1CCc2ccccc2[C@H]1c1ccccc1 = 1.4
• Br.O=C(O[C@H]1CN2CCC1CC2)N1CCc2ccccc2[C@H]1c1ccccc1 = 0.5

Now take the following compound into account.
Data request: Which Impurities before Storage (%) is reported for this compound? O=C(O[C@H]1CN2CCC1CC2)N1CCc2ccccc2[C@H]1c1ccccc1 [Example 1]
Data returned: 1.5
